testedTarget: IFN-gamma (Homo sapiens, UniProt P01579 P01579:24-161)
Sequence (P01579 24-161, one chain of several): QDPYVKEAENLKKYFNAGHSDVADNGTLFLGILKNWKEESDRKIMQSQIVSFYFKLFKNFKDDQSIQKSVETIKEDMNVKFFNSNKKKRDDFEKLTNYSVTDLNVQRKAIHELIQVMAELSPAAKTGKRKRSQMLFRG
assayName: inhibition; IFN-gamma/IFN-gamma-R1 ELISA day 1; day 2 70 nM
reportedConditions: tags: R&D Systems, Minneapolis; chain copies: 2; label: 5'-32P

- binder: "ARC789 (AMX(192)_A5) (mixed, dRmY: deoxy A,G; 2'-OMe C,U (cDNA printed, T=U)) DNA: GGGAGAGGAGAGAACGTTCTACGTTTGCGGTCAGGATGGGGTGGTGGGAGGTCGATCGATCGATCATCGATG"
  IC50 / nM: 40
